Values were extracted from PubChem BioAssay AID624467.

Documented activation across a set of compounds
- Tested System: Trace amine-associated receptor 1 (Homo sapiens)
- Assay Protocol: activators of TAAR1 calcium mobilization – Fluo-8 calcium fluorescence, CHO RD-HGA16 cells, primary screen (AID 624467)
- Test Conditions: CHO RD-HGA16 TAAR1, Fluo-8 calcium fluorescence; at 3 µM; stronger effect = higher value; vehicle wells 0%, saturating PEA agonist 100%
Out of some 360,000 compounds screened, about 3,600 (1%) were called active. The sample holds actives, similar compounds and a random draw of the others, so the mix is not that of the screen.
Express your answer in %, writing the number without its unit.

Before answering, review these 3 worked examples.
CCCc1nnc(NC(=O)CCC(=O)N2CCN(S(=O)(=O)c3ccc(OC)cc3)CC2)s1 ... 4.53
CCOc1ccccc1NC(=S)NC(=O)CCc1ccccc1 ... -1.05
O=C(OCCN=C1NS(=O)(=O)c2ccccc21)c1cccc([N+](=O)[O-])c1 ... 0.99

Looking up C=CCOc1ccc(C(=O)Nc2ccccc2C(=O)N2CCCC2)cc1 , I found its activation recorded as -0.26

* * *

- Tested System: Trace amine-associated receptor 1 (Homo sapiens) (UniProt Q96RJ0)
- Sequence (Q96RJ0 whole entry, looked up): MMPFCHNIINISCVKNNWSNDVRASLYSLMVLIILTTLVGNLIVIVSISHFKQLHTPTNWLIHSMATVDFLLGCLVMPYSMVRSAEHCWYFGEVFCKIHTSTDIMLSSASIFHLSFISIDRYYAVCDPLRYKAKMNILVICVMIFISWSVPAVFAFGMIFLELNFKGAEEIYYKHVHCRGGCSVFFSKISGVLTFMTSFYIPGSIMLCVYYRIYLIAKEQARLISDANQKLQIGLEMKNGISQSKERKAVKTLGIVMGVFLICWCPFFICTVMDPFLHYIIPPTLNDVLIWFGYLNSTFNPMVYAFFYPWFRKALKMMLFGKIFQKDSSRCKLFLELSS
- Assay Protocol: activators of TAAR1 calcium mobilization – Fluo-8 calcium fluorescence, CHO RD-HGA16 cells, primary screen (AID 624467)
- Test Conditions: CHO RD-HGA16 TAAR1, Fluo-8 calcium fluorescence; at 3 µM; stronger effect = higher value; vehicle wells 0%, saturating PEA agonist 100%
The whole screen tested about 360,000 compounds, of which about 3,600 (1%) were called active. The sample as a whole holds a higher share of actives than the screen did.
Recorded Metric: activation (%)
Express your answer in %, writing the number without its unit.

Before answering, review these 10 worked examples.
Cc1c(CNCCc2ccccc2)c(C(=O)O)c(C)n1-c1ccccc1 ... 78.1
O=C1Nc2ccccc2C1=NN=Cc1ccco1 ... 0.51
O=C(COc1ccc(Br)cc1F)NC1CCN(Cc2ccccc2)CC1 ... 7.63
CC(C)(C)c1ccc(S(=O)(=O)NCC2CCN(C(=O)C(=O)c3cc4ccccc4o3)CC2)cc1 ... -0.02
O=C(Cc1ccc(Cl)cc1)NC(=S)Nc1ccccc1O ... 138
CN(c1cccc(NC(=O)Nc2ccc(Cl)cc2)c1)S(C)(=O)=O ... 46.9
CN(C(=O)CN(CCO)CC(=O)N(C)C(C)(C)Cc1ccccc1)C(C)(C)Cc1ccccc1 ... 125
CCCCCCCCN1C(=O)[C@@H](CC(=O)NCc2ccc(C)o2)C[C@@]2(C(=O)OC)C1=C[C@H](C(C)(C)C)O[C@@H]2C ... -1.18
Cc1cc(C(=O)NNC(=S)Nc2ccccc2C)cs1 ... 7.69
CC(=O)N1Cc2cc(C(=O)NCc3cccc(F)c3)nc(-c3cccc(C4=CCCC4)c3)c2[C@H]1CCO ... 1.95

Looking up COC(=O)c1ccccc1NC(=O)CN(Cc1ccc(Cl)cc1)S(C)(=O)=O , I found its activation recorded as 8.09

Looking up CCCCCCCCN1C(=O)[C@@H](CC(=O)N2CCN(C(=O)OCC)CC2)C[C@@]2(C(=O)OC)C1=C[C@H](C1CCCC1)O[C@@H]2C , I found its activation recorded as -2.04

Looking up CCOC(=O)N(Cc1ccccc1)C1CC1 , I found its activation recorded as 3.18

Looking up Cc1cccc(OCCNC(=S)NC(=O)c2cccnc2)c1 , I found its activation recorded as -0.63

Looking up C=C1CCC(N(O)c2cc(C)on2)C(=C)CCC2C1CC2(C)C (stereo not given) , I found its activation recorded as 2.74

Looking up CCCN1CNC(=S)N(CCc2ccccc2)C1 , I found its activation recorded as 4.93

Looking up O=S(=O)(NCCc1ccccn1)c1cc(Cl)cc(Cl)c1O , I found its activation recorded as 3.97

Looking up O=S(=O)(Cc1cc(Sc2ccccc2)nc(-c2ccccc2)n1)c1ccccc1 , I found its activation recorded as 11.3

* * *

Documented activation across a set of compounds
- Tested System: Trace amine-associated receptor 1 (Homo sapiens) (UniProt Q96RJ0)
- Assay Protocol: activators of TAAR1 calcium mobilization – Fluo-8 calcium fluorescence, CHO RD-HGA16 cells, primary screen (AID 624467)
- Test Conditions: CHO RD-HGA16 TAAR1, Fluo-8 calcium fluorescence; at 3 µM; stronger effect = higher value; vehicle wells 0%, saturating PEA agonist 100%
About 3,600 (1%) of roughly 360,000 compounds were called active. Many of the other results were omitted from the sample, so actives are more common in it than they were.
Express your answer in %, writing the number without its unit.

Before answering, review these 4 worked examples.
Nc1ncnc2c1ncn2C1OC(CO)CC1O (stereo not given) ... 1.93
Cc1cccc2cc(CN(Cc3nnnn3Cc3ccccc3)C3CCCC3)c(=O)[nH]c12 ... 12
O=C(Nc1ccc2ccccc2c1)/C(=C\c1ccc2c(c1)OCO2)NC(=O)c1ccco1 ... -0.26
NC(=O)c1ncn([C@@H]2O[C@H](C(=O)O)[C@@H](O)[C@H]2O)n1 ... 1.97

Given the compound CCCc1ccc(OCC(=O)NNC(=S)NC(=O)c2ccco2)cc1 and test system Trace amine-associated receptor 1 (Homo sapiens) (UniProt Q96RJ0), the measured activation is 83.4

* * *

- Tested System: Trace amine-associated receptor 1 (Homo sapiens)
- Assay Protocol: activators of TAAR1 calcium mobilization – Fluo-8 calcium fluorescence, CHO RD-HGA16 cells, primary screen (AID 624467)
- Test Conditions: CHO RD-HGA16 TAAR1, Fluo-8 calcium fluorescence; at 3 µM; vehicle wells 0%, saturating PEA agonist 100%
Screen size: about 360,000 compounds; about 3,600 (1%) were called active.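 Rule for the calls: active = activation above the mean activation of all test compounds in the run plus 3 SD (cut at about 38% in these data); inactive = the rest.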 The entries come from a sample that favours actives as a whole.
// allowed return values: true (active), false (inactive)

A selection of reference data follows.
O=C(Nc1ccc(F)cc1)Nc1nnc([C@H]2C[C@H](O)[C@@H](CO)O2)s1 ... true
O=C1NC[C@H](CCCCN2CCN(CCc3ccccc3)C(=O)C2=O)N(CC2CCCCC2)C1=O ... false
O=c1[nH]c(-c2ccccc2)cn1C1CCN(Cc2ccc(-c3nc4ccc(F)cc4nc3-c3ccccc3)cc2)CC1 ... false
Nc1nnn(CC(=O)N/N=C/c2ccccc2)n1 ... true
O=C(Nc1cccc(-c2cccc(Cl)c2)c1)C1CCN(C2CCC2)CC1 ... true

In this assay, the call recorded for COc1cc(OC)cc(C(=O)N[C@H](C(=O)OCC(=O)NC(C)c2ccccc2)C(C)C)c1 (stereo partly drawn) was what? true

In this assay, the call recorded for O=C(Nc1n[nH]c(C(F)(F)F)n1)c1cccs1 was what? false

In this assay, the call recorded for CCc1nc2ccc(C(=O)N3CCN(c4cccc(Cl)c4)CC3)cc2nc1CC was what? false

* * *

- Tested System: Trace amine-associated receptor 1 (Homo sapiens)
- Assay Protocol: activators of TAAR1 calcium mobilization – Fluo-8 calcium fluorescence, CHO RD-HGA16 cells, primary screen (AID 624467)
- Test Conditions: CHO RD-HGA16 TAAR1, Fluo-8 calcium fluorescence; at 3 µM; vehicle wells 0%, saturating PEA agonist 100%
Hit rate of the full screen: of about 360,000 compounds, about 3,600 (1%) were called active.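 The calls were made as follows: active = activation above the mean activation of all test compounds in the run plus 3 SD (cut at about 38% in these data); inactive = the rest.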 For the sample, actives were picked, then their nearest neighbours and some compounds at random.
// allowed return values: Y (active), N (inactive)

A selection of reference data follows.
COc1ccccc1CNS(=O)(=O)c1c(C)[nH]c(C)c1C(=O)N1CCCCC1 ... N
COC1=CCC2([N+](=O)[O-])CN(CC(=O)O)CC1([N+](=O)[O-])C2 (stereo not given) ... N
COc1ccccc1C(=O)N1O[C@]23C=C[C@]14C[C@@H](O)CC[C@]4(C)C2CC[C@]1(C)[C@@H]([C@H](C)/C=C/[C@H](C)C(C)C)CC[C@H]13 (stereo not given in full) ... N
COc1ccc(NC(=O)COC(=O)Cn2c(C)nc3ccccc32)cc1OC ... N
COCCN1C(=O)N(c2ccc(Cl)cc2)C(=O)C1CC(=O)Nc1cc(OC)cc(OC)c1 (stereo not given) ... N
COc1ccccc1N1CC(C(=O)Nc2ccc(S(=O)(=O)N3CCOCC3)cc2)CC1=O (stereo not given) ... N

In this assay, the call recorded for Cc1ccc2cc(C)c(N3CCN(c4ccc(F)cc4)CC3)nc2c1 was what? N

In this assay, the call recorded for CC/C(=C(/c1ccccc1)c1ccc(OCC[N+](C)(C)C)cc1)c1ccccc1 was what? N

In this assay, the call recorded for C#CCOc1ccc(/C=C2/C(=O)NN(c3ccccc3)C2=O)cc1OC was what? Y

* * *

Documented activation across a set of molecules
- Tested System: Trace amine-associated receptor 1 (Homo sapiens) (UniProt Q96RJ0)
- Assay Protocol: activators of TAAR1 calcium mobilization – Fluo-8 calcium fluorescence, CHO RD-HGA16 cells, primary screen (AID 624467)
- Test Conditions: CHO RD-HGA16 TAAR1, Fluo-8 calcium fluorescence; at 3 µM; stronger effect = higher value; vehicle wells 0%, saturating PEA agonist 100%
Among all 360,000 compounds or so, about 3,600 (1%) were called active. The entries come from a sample that favours actives as a whole.
Express your answer in %, writing the number without its unit.

O=C(O)C1CCN(S(=O)(=O)N2CCOCC2)CC1 ... 7.75

Looking up Fc1ccccc1CNC(=S)Nc1ccc(Cl)cc1 , I found its activation recorded as 5.04

Looking up OC(CCl)CCl , I found its activation recorded as 4.28

Looking up CN(c1cccc(NC(=O)c2ccc(CN3CCc4ccccc4C3)cc2)c1)S(C)(=O)=O , I found its activation recorded as 7.79

Looking up CC(=O)c1ccc(S(=O)(=O)NCC2CCN(C(=O)C(=O)c3cccs3)CC2)cc1 , I found its activation recorded as 6.58

Looking up CCN(CC)C(=O)CCC(=O)Nc1ccc(C(=O)OC)cc1 , I found its activation recorded as 4.26

Looking up NC(CSC(c1ccccc1)(c1ccccc1)c1ccc(-c2ccccc2)cc1)C(=O)O (configuration not stated) , I found its activation recorded as 3.19
